# assay-protocol: NCI Yeast Anticancer Drug Screen. Data for the sgs1 mgt1 strain (AID 161);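 note: 0% = growth of cultures given vehicle only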
# experimental-conditions: S. cerevisiae sgs1 mgt1 strain, at 50.0 µM, active compounds read high
This is part of a sample that, as a whole, favours compounds with a hit. Of some 79,000 tested, about 15% had one in any assay. Active and inactive are the calls of the source. Cut-off read from the data, not from the text of the source: active = growth inhibition above about 70%; inactive = the rest.

{"columns": ["compound", "growth inhibition"],
 "data": [
  ["CCCCN(CCCC)CC(O)c1cc(-c2ccc(Cl)cc2)nc2c(C)cccc12 (stereo unspecified)", "98.4% (active)"],
  ["CCCCCc1cc(Cl)cc(Cl)c1O", "67.5% (inactive)"],
  ["CCCCc1ccc2nc(C)cc(N=[N+]=[N-])c2c1", "94.8% (active)"],
  ["COc1cccc2c1OC(c1cccc3ccccc13)C([N+](=O)[O-])=C2 (stereo unspecified)", "61.4% (inactive)"],
  ["Cc1c(NC(=O)CCl)c(=O)oc2c(C)c3occc(=O)c3cc12", "90.8% (active)"],
  ["Cc1ccc(N2CC(O)CN(c3ccc(C)cc3)CC(O)C2)cc1 (stereo unspecified)", "24.9% (inactive)"],
  ["CC1OC(Oc2c(-c3ccc(O)c(O)c3O)oc3cc(O)ccc3c2=O)C(O)C(O)C1O (stereo unspecified)", "17.6% (inactive)"],
  ["CC1(C)CC(=O)C(C(c2ccc3c(c2)OCO3)N2CCOCC2)C(=O)C1 (stereo unspecified)", "99.3% (active)"],
  ["CCCCCCCCCCCCCCCCCC[N+](C)(C)Cc1ccc(C[N+](C)(C)CCCCCCCCCCCCCCCCCC)cc1", "71.3% (active)"],
  ["C=C1CC2(OC1=O)C(=O)N(C)c1ccccc12 (stereo unspecified)", "82.6% (active)"],
  ["BrCc1ccc([Si](c2ccccc2)(c2ccccc2)c2ccc(CBr)cc2)cc1", "53% (inactive)"],
  ["[O-]c1c2cc(-[n+]3c(-c4ccccc4)cc(-c4ccccc4)cc3-c3ccccc3)cc1CO[C@@H](c1ccccc1)[C@H](c1ccccc1)OCc1cccc(n1)CO[C@@H](c1ccccc1)[C@H](c1ccccc1)OC2", "90.5% (active)"],
  ["CC(C)=CCc1ccc(O)cc1", "-24.1% (inactive)"],
  ["CC(C)N1C(=O)C=CC1=O", "52.1% (inactive)"],
  ["C#CCCOC(=O)CC1=C(C)/C(=C/c2ccc(S(C)=O)cc2)c2ccc(F)cc21 (stereo unspecified)", "88% (active)"],
  ["CC1OC(CC(=O)O)Cc2c1c(O)c1c(O)cc(-c3cc(=O)c4c(=O)c5c(c(=O)c=4c3=O)CC(CC(=O)O)OC5C)c(O)c1c2O (stereo unspecified)", "54.4% (inactive)"],
  ["CCCCCCCCCCCCCCCC[N+](C)(C)CC(=O)O", "-1.4% (inactive)"],
  ["CC1=C(C(=O)Nc2ccccc2)C(c2cccc3ccccc23)C(C(=O)Nc2ccccc2)=C(C)N1", "48.6% (inactive)"],
  ["C\\C=C/C=C/C=C/C(=O)O", "42.3% (inactive)"],
  ["COc1ccc2c(c1)C1(C)CCCC(C)(C(=O)O)C1CC2 (stereo unspecified)", "99.6% (active)"],
  ["Cc1cc(C)nc(/C=C/c2ccccc2)c1", "98.6% (active)"]
]}

---

# assay-protocol: NCI Yeast Anticancer Drug Screen. Data for the mlh1 rad18 strain (AID 175)
# experimental-conditions: S. cerevisiae mlh1 rad18 strain growth inhibition; at 50.0 µM (retest, dose inferred, filed as 5.0); active compounds read high
Compounds without any hit were thinned out: in the full panel of roughly 79,000, 15% have a hit.
Classification field: label 1 = growth inhibition at or over 60%; label 0 = growth inhibition under 60%.

{"columns": ["molecule", "classification"],
 "data": [
  ["COc1cc(NCCCCCCCC2CCCCN2)c2ncccc2c1 (stereo not given)", "label 1"],
  ["CCNC(=S)NC1CCCCCCCCCCC1", "label 1"],
  ["Oc1cccnc1CN1CCCCC1", "label 0"],
  ["CN(C)C(=S)/N=c1\\ssc(=S)n1-c1ccccc1", "label 1"],
  ["COC1OC2=CCC3C(=O)NC(=O)C3C2[C@H](OCc2ccccc2)C1OCc1ccccc1 (stereo not given in full)", "label 1"],
  ["Oc1ccc(C2CCc3ccccc32)cc1 (stereo not given)", "label 1"],
  ["CCCCNc1cccc2ncccc12", "label 0"],
  ["O=C(Nc1cccc(Cl)c1)OCCOC(=O)Nc1cccc(Cl)c1", "label 1"],
  ["CC(C)=CCC/C(C)=C/CCC1(C)C=Cc2c(c3ccccc3oc2=O)O1 (stereo not given)", "label 0"],
  ["CCCCCCCCCSC(=S)N(C)NC(=O)c1ccccn1", "label 1"],
  ["CCCCCCCCCCCOc1cccc(N2C(N)=NC(N)=NC2(C)C)c1", "label 1"],
  ["Nc1c(Cl)nc(C(F)(F)F)nc1NCc1ccccc1", "label 1"],
  ["Cc1cc(N(CCC#N)CCC#N)ccc1/C(Sc1ccccc1)=C(\\NC(=O)/C=C/c1ccccc1)C(=O)Sc1ccccc1", "label 0"],
  ["CCOc1ccc(C=Nc2ccc(/C=C(\\C)C(=O)OCCC(C)C)cc2)cc1", "label 1"],
  ["CCCCc1c2c(nc3c1CC/C(=C\\c1ccccc1)C3=O)CCCC2", "label 1"],
  ["CC(C)N=C(NC(C)C)SCCCCCCSC(=NC(C)C)NC(C)C", "label 0"],
  ["COc1ccc(CN2C(=O)C(Cl)=C(Cl)C2=O)c(OC)c1", "label 0"],
  ["CC(C)SC(=S)Nc1ccc(Cl)cc1", "label 1"],
  ["O=[N+]([O-])c1ccccc1Oc1ccc([N+](=O)[O-])c(C(F)(F)F)c1", "label 1"],
  ["CN1C(Cl)=NS(=O)(=O)c2ccccc21", "label 0"],
  ["OCCN=C1c2ccccc2C2C(c3ccccc31)C1c3ccccc3C(=NCCO)c3ccccc3C21 (stereo not given)", "label 0"],
  ["CC(C=O)Cc1ccccc1 (stereo not given)", "label 0"],
  ["BrCN(CBr)c1ccc2c(c1)Cc1cc(Br)ccc1-2", "label 0"],
  ["COc1ccc(-c2cc(C(=O)O)c3cccc(C(F)(F)F)c3n2)cc1", "label 1"],
  ["CC1OC(Oc2c(-c3ccc(O)c(O)c3O)oc3cc(O)ccc3c2=O)C(O)C(O)C1O (stereo not given)", "label 0"],
  ["O=C(CCC(O)(c1ccccc1)c1ccccc1)c1ccccc1", "label 1"],
  ["CCOC(=O)C1=C(C)NC(C)=C(C(=O)OCC)C1c1ccc([N+](=O)[O-])s1", "label 1"],
  ["Cc1ccccc1P(=O)(c1ccccc1C)c1ccccc1C", "label 0"],
  ["O=C(OC1=C(Br)C(=O)c2ccccc2C1=O)c1ccccc1", "label 1"],
  ["Cc1ccc(N2C(=O)CSC2=S)cc1Br", "label 1"],
  ["CCCCCCCCCCCC(C)N (stereo not given)", "label 1"],
  ["CC[n+]1c(/C=C/c2ccc(N(C)C)cc2)ccc2ccccc21", "label 1"],
  ["COC(=O)c1c(C)cccc1C(=O)c1c(C)cc(C)cc1C", "label 1"],
  ["CC1(C)CNCC(C)(OCc2ccccc2)C(=O)NC(C)(C)CNCC(C)(OCc2ccccc2)C(=O)N1 (stereo not given)", "label 0"],
  ["CSC(=S)CC(O)[C@@H]1CC2c3ccccc3C1c1ccccc12 (stereo not given in full)", "label 1"],
  ["O=C1/C(=C\\c2ccc(Cl)cc2Cl)Sc2scc(-c3cccc([N+](=O)[O-])c3)[n+]21", "label 1"],
  ["CCCCCCCCCCCCS", "label 0"],
  ["O=[N+]([O-])c1ccc(Cl)cc1C(Nc1nncs1)Nc1nncs1", "label 1"],
  ["O=C(CCl)NC(=O)N(/N=C/c1ccco1)c1ccccc1", "label 1"],
  ["NCCOB1c2ccccc2Cc2ccccc21", "label 1"],
  ["CCOC(=O)/C(=C\\n1c(=O)sc2ccccc21)C(=O)c1ccccc1", "label 0"],
  ["COC(=O)[C@@]12OC[C@]34[C@H]([C@@H](O)[C@@H]1O)[C@@]1(C)CC(=O)C(OC(=O)CC(=O)OC5=C(C)[C@@H]6C[C@H]7OC(=O)[C@H](OC(=O)/C=C(\\C)C(C)C)[C@H]8[C@]9(C(=O)OC)OC[C@]78[C@H]([C@@H](O)[C@@H]9O)[C@@]6(C)CC5=O)=C(C)[C@@H]1C[C@H]3OC(=O)[C@H](OC(=O)/C=C(\\C)C(C)C)[C@@H]24", "label 1"],
  ["CCCC(=O)OCC1CC2C=CC1C2 (stereo not given)", "label 0"],
  ["FC1(F)C2=C(SC3=C(S2)C(F)(F)C3(F)F)C1(F)F", "label 1"],
  ["CCCCCC(/C=N/NC(N)=S)C(O)(C(F)(F)F)C(F)(F)F (stereo not given)", "label 1"]
]}

Where do the numbers come from? From PubChem BioAssay (NCI).
